Values compiled from patent US20230374147A1.

Target: T1, Human BCMA-His (Sino Biological, 10620-H08H) (human, UniProt Q02223 1-54)
T1 construct: not shown: His tag
T1 sequence: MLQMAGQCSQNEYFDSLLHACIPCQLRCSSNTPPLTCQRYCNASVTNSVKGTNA
Assay: ELISA, coated Human BCMA-His
For each of the binders below, state its pEC50.
One number for each entry, as −log10 of the molar value.

A selection of reference data follows.
- binder: "1C8-610 hIgG1 (antibody, V domains shown, also called [93]; hu1C8-610) VH: QVQLVQSGAEVKKPGASVKVSCKASGYTFTNYVMFWVKQKPGQGLEWMGYITPYNDGTKYAQKFQGKVTMTSDKSTSTVYMELSSLTSEDTAVYYCARYDYEGSFDYWGQGTLVTVSS VL: DIQMTQSPSSLSASVGDRVTITCRASQDISNYLNWYQQKPGKAPKLLMRYTSRFHSGVPSRFSGSGSGTDFTLTISSLEQEDFATYYCQQGNTFPPTSGGGTKVEIKR"
  measure_name: "pEC50"
  reading: 11.00
- binder: "1C8-507 hIgG1 (antibody, V domains shown, also called [92]; hu1C8-507) VH: QVQLVQSGAEVKKPGASVKVSCKASGYTFRNYVMHWVKQKPGQGLEWMGWILPYNDGTKYAQKFQGKVTMTSDKSTSTVYMELSSLTSEDTAVYYCARYDYEGSFDYWGQGTLVTVSS VL: DIQMTQSPSSLSASVGDRVTITCRASQDISNYLNWYQQKPGKAPKLLMRYTSLLHSGVPSRFSGSGSGTDFTLTISSLEQEDFATYYCQQGNTFPPTFGGGTKVEIKR"
  measure_name: "pEC50"
  reading: 10.06
- binder: "J6M0 (antibody, V domains shown, also called J6M0-hIgG1; anti-BCMA) VH: QVQLVQSGAEVKKPGSSVKVSCKASGGTFSNYWMHWVRQAPGQGLEWMGATYRGHSDTYYNQKFKGRVTITADKSTSTAYMELSSLRSEDTAVYYCARGAIYDGYDVLDNWGQGTLVTVSS VL: DIQMTQSPSSLSASVGDRVTITCSASQDISNYLNWYQQKPGKAPKLLIYYTSNLHSGVPSRFSGSGSGTDFTLTISSLQPEDFATYYCQQYRKLPWTFGQGTKLEIK"
  measure_name: "pEC50"
  reading: 10.74

Q: Entry 1C8-403 hIgG1 (antibody, V domains shown, also called [91]; hu1C8-403) VH: QVQLVQSGAEVKKPGASVKVSCKASGYTFTNYVMHWVKQKPGQGLEWMGYILPYNDGTKYAQKFQGKVTMTSDKSTSTVYMELSSLTSEDTAVYYCARYDWEGSFDYWGQGTLVTVSS VL: DIQMTQSPSSLSASVGDRVTITCRASSDISNYLNWYQQKPGKAPKLLMCYTSRLHSGVPSRFSGSGSGTDFTLTISSLEQEDFATYYCQQGNTFPPTFGGGTKVEIKR needs its pEC50 filled in; supply it.
Ans: 10.21
